Reference for the values: paper PMC10397247

Can you tell me interaction score for the items I'm about to list?
Molecular target: T1, 4H56-AA
T1 chain: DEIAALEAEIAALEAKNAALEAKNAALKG
Assay: two-hybrid library CCmax;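 note: natural log of median RNA to DNA barcode read ratio; higher means stronger binding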
Settings: mean of both orientations
Give bare numbers.

The cases that follow already have their interaction score on record.
> print(dat)
                                     binder  reported.endpoint  observed.measurement
1  DKIAALKAKIAALKAKNAALEAENAALEG [4H2931-AA]  interaction score                  1.81
2  DKIAALKAKNAALEAKNAALKAEIAALEG [4H3001-AA]  interaction score                 -1.87

Fill in interaction score for each of the 2 binders listed.
1. DKIAALKAENAALEAKIAALKAENAALKG [4H2732-AA]
2. DKIAALEAEIAALKAEIAALKAENAALKG [4H2124-AA]

OUT:
1: -1.58; 2: -1.73

Fill in interaction score for each of the 8 binders listed.
1. DKIAALEAKIAALEAKIAALEAKNAALEG [4H2343-AA]
2. DEIAALEAKIAALKAENAALKAENAALEG [4H347-AA]
3. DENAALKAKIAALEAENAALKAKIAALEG [4H1821-AA]
4. DENAALKAENAALKAKIAALEAKIAALEG [4H1765-AA]
5. DENAALKAKNAALEAEIAALKAEIAALKG [4H1930-AA]
6. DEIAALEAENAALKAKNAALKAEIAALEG [4H249-AA]
7. DENAALKAEIAALKAKNAALEAEIAALKG [4H1650-AA]
8. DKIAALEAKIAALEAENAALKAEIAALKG [4H2330-AA]

OUT:
1. -1.45
2. -0.0342
3. -1.44
4. -1.76
5. -2.31
6. -1.62
7. -1.74
8. -1.47

Fill in interaction score for each of the 2 binders listed.
1. DKNAALEAKIAALKAKIAALKAKIAALKG [4H3438-AA]
2. DKIAALKAKNAALKAEIAALEAKNAALEG [4H3015-AA]

OUT:
1. 0.462
2. -1.59

Fill in interaction score for each of the 8 binders listed.
1. DEIAALEAENAALEAKIAALKAKNAALEG [4H175-AA]
2. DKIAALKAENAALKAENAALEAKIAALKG [4H2774-AA]
3. DKIAALKAEIAALEAENAALKAKNAALKG [4H2592-AA]
4. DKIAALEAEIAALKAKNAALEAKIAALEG [4H2165-AA]
5. DENAALKAEIAALKAEIAALKAKNAALEG [4H1615-AA]
6. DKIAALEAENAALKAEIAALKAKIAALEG [4H2253-AA]
7. DEIAALEAKNAALEAENAALEAKIAALKG [4H406-AA]
8. DEIAALEAKNAALKAEIAALEAENAALKG [4H452-AA]

OUT:
1. -1.56
2. -1.47
3. -0.726
4. -0.766
5. -1.15
6. -1.23
7. -1.47
8. -1.4

Fill in interaction score for each of the 2 binders listed.
1. DENAALKAKIAALEAKIAALEAENAALKG [4H1828-AA]
2. DKNAALEAEIAALEAEIAALEAEIAALEG [4H3073-AA]

OUT:
-1.03
-1.28
